- MEASUREMENT TARGET: Cytochrome P450 2C9 (Homo sapiens, UniProt P11712)
- Sequence (P11712 whole entry): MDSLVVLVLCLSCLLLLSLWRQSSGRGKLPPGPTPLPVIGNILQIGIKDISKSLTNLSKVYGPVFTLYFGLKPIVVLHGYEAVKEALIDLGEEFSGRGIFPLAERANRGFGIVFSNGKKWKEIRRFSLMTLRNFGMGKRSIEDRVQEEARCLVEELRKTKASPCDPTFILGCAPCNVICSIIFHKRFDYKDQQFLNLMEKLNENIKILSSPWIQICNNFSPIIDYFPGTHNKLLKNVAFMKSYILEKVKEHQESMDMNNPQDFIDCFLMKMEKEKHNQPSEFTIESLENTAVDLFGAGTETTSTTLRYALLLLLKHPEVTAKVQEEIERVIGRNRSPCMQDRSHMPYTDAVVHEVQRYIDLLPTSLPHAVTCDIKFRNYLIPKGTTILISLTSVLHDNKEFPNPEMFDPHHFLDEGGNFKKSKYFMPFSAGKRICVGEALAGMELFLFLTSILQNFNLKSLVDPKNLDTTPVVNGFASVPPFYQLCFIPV
REPORTED METRIC: IC50 (µM)
The reply should contain only the number, in µM.

Prompt: For the compound shown here, Cc1cc(C#N)cc(C)c1Oc1nc(NC2CCN(Cc3ccc(C(N)=O)cc3)CC2)nc2c1COC2 , give the reported IC50.
Response: 46.6

* * *

- EXPERIMENT NOTES: Cmax in Wistar rat at 20 mg/kg, po by LC-MS/MS analysis
- Type: ADME, organism-based
- Set-up: dose 20 mg/kg, route oral
- CONDITION: in vivo
REPORTED METRIC: Cmax (ng/mL)
Use ng/mL as the unit, but write only the number.

Prompt: I'd like to know its Cmax. The molecule in question is Cc1cc(C#N)cc(C)c1Oc1nc(NC2CCN(Cc3ccc(C(N)=O)cc3)CC2)nc2c1COC2
Response: 400
